- SYSTEM UNDER TEST: KPC-3 (Klebsiella pneumoniae, UniProt Q9F663, H272Y)
- Sequence (Q9F663 25-293 H272Y): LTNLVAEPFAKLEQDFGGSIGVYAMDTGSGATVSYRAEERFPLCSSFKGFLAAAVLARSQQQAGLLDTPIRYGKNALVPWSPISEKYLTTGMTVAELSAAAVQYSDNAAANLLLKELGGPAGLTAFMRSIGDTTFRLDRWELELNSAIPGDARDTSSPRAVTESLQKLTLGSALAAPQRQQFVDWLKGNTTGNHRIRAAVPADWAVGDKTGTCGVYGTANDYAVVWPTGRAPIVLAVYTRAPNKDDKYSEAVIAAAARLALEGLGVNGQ
- PROTOCOL DETAILS: 10 minute IC50 β-lactamase inhibition assay (Chromacef hydrolysis)
- CONDITION SET: 10 min preincubation, 300 μM Chromacef, pH 7.0, 30° C.
- Description: A chromogenic cephalosporin, Chromacef, is synthesized and isolated as described by Yu, et al. (Yu S; Vosbeek, A; Corbella, K; Severson, J; Schesser, J; and Sutton, L D. A chromogenic cephalosporin for fJ-lactamase inhibitor screening assays (2012) Analytical Biochemistry, 438, 96-98) and used to monitor β-lactamase activity. β-Lactamase enzymes are isolated from bacteria by methods known to those knowledgeable in the art. […]
MEASURE NAME: IC50

{"columns": ["MOLECULE", "OBSERVED"],
 "data": [
  ["O=C(Cc1ccccc1)NC1C(=O)N2C(C(=O)O)=C(C=Cc3ccc(CCl)cc3[N+](=O)[O-])CS[C@H]12 (stereo partly shown)", "973 nM"]
]}

---

- SYSTEM UNDER TEST: NDM-1 (Klebsiella pneumoniae)
- Sequence (C7C422 29-270, looked up, species assumed): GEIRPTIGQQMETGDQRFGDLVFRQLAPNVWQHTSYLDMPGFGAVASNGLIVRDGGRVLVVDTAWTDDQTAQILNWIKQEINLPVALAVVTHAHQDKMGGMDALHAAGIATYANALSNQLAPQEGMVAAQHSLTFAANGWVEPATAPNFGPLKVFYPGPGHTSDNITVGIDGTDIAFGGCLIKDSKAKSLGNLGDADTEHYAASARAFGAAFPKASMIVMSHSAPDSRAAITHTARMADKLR
- PROTOCOL DETAILS: 10 minute IC50 β-lactamase inhibition assay (Chromacef hydrolysis)
- CONDITION SET: 10 min preincubation, 300 μM Chromacef, pH 7.0, 30° C.
MEASURE NAME: IC50 (µM)

{"columns": ["COMPOUND", "MEASURE NAME", "MEASUREMENT UNITS", "OBSERVED"],
 "data": [
  ["O=C(Cc1ccccc1)NC1C(=O)N2C(C(=O)O)=C(C=Cc3ccc(CCl)cc3)CS[C@H]12 (some centres unmarked)", "IC50", "µM", 6.4],
  ["O=C(Cc1ccccc1)NC1C(=O)N2C(C(=O)O)=C(C=Cc3ccc(CCl)cc3[N+](=O)[O-])CS[C@H]12 (some centres unmarked)", "IC50", "µM", 0.584]
]}

---

- SYSTEM UNDER TEST: VIM-2 (Escherichia coli)
- PROTOCOL DETAILS: 10 minute IC50 β-lactamase inhibition assay (Chromacef hydrolysis)
- CONDITION SET: 10 min preincubation, 300 μM Chromacef, pH 7.0, 30° C.
pIC50: −log10 of the molar value.

{"columns": ["COMPOUND", "pIC50"],
 "data": [
  ["O=C(Cc1ccccc1)NC1C(=O)N2C(C(=O)O)=C(C=Cc3ccc(CCl)cc3)CS[C@H]12 (stereo partly shown) [II-Cl/benzyl]", 4.97]
]}
